Data origin: patent US20220153851A1

EC50 for assorted binders
target: T1, hCSF1R ECD.506-Fc (human); test: ELISA, plate coated with human CSF1R ECD-Fc
T1 construct: also called human CSF1R ECD-Fc fusion protein; human CSF1R ECD
T1 sequence (chain, as listed by the source limits assumed): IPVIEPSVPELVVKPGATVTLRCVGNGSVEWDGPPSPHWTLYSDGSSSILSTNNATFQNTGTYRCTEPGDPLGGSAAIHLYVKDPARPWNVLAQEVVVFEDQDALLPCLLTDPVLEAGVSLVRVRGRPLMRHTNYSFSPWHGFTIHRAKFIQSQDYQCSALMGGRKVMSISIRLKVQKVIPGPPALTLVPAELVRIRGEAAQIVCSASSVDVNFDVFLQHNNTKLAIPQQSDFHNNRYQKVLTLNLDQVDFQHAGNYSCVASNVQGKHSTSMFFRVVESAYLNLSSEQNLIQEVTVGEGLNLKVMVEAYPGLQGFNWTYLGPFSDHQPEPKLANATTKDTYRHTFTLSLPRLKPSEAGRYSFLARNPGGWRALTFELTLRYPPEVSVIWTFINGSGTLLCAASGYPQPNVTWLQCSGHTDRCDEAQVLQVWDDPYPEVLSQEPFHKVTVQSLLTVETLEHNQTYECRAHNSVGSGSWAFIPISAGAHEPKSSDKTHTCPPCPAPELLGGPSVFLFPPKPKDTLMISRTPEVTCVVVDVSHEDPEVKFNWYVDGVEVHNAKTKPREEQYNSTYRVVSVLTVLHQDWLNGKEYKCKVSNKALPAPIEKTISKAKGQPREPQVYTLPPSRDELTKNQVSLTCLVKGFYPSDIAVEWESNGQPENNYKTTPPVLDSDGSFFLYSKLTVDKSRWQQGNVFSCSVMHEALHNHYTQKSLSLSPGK
assay_endpoint: EC50

binder	measured_result
h0302-L2H2 (antibody, human IgG4 S228P, kappa, V domains shown, also called Ab12; huAb 0302-L2H2) VH: QVQLVQSGAEVKKPGSSVKVSCKASGYTFSDFNIHWVRQAPGQGLEWIGYINPYTDVTVYNEKFKGRATLTSDKSTSTAYMELSSLRSEDTAVYYCASYFDGTFDYALDYWGQGTLVTVSS VL: EIVVTQSPATLSLSPGERATLSCRASESVDNYGLSFMNWFQQKPGQAPRLLIYTASNLESGIPARFSGSGSRTDFTLTISSLEPEDFAVYYCQQSKELPWTFGQGTKVEIKR	0.0101 µg/mL
h0311-L1H2 (antibody, human IgG4 S228P, kappa, V domains shown, also called Ab16; huAb 0311-L1H2) VH: QVQLVQSGAEVKKPGSSVKVSCKASGYIFTDYNMHWVRQAPGQGLEWMGEINPNNGVVVYNQKFKGTTTLTVDKSTSTAYMELSSLRSEDTAVYYCTRALYHSNFGWYFDSWGQGTLVTVSS VL: DIVLTQSPATLSLSPGERATLSCKASQSVDYDGDSHMNWYQQKPGQAPRLLIYTASNLESGIPARFSGSGSGADFTLTISSLEPEDFAVYYCQQGNEDPWTFGQGTKVEIKR	0.0133 µg/mL
